Target: RSV fusion glycoprotein (RSV-F) (respiratory syncytial virus)
Experiment: SPR; F protein loaded on streptavidin sensors, mAb in solution
PARAMETER_MEASURED: Kd (nM)
Numbers only, in nM.

BINDER	Kd / nM
MPK108 (antibody, V domains shown, VH and VL only) VH: EVQLVESGGGLVRPGQSLRLSCTASGFSISGYFMIWVRQAPGKGLEWISYVSASSTYTNYADSVRGRFTTSRDNGQNSLFLQMDSLTAEDTGVYFCAREQTPSPGPFDSWGQGVLVTVSS VL: QSVLTQPPSLSGAPGQRITISCTGTSSNIGAGYDVHWYQYLPGTAPKLVIYRNTNRPSGVSGRFSGSKSGTSASLAITGLQTEDEADYYCQSYDKKLDGWVFGGGTKLTVL	0.58

Alright, here's another binder for you.
For MPK30-v1 (antibody, V domains shown, VH and VL only) VH: EVQLVESGGGLVKPGGSLRLSCAASGFTISGYYMIWIRQAPGKGLEWISFISASSSYINYADSVRGRFTISRDNGRSTVYLQMNSLRPEDTAVYYCATEQVPSPGPFDLWGQGTLVTVSS VL: QSVLTQPPSVSGAPGQRVTISCTGTSSNIGAGYDVHWYQQFPGRSPKLLIYRNTNRPSGVPDRFSGSKSGSSASLAIAGLQAEDEADYYCQSYDRSLDGWVFGGGTTLTVL the binder record lists Kd as 0.01
